Values were extracted from patent US11319305B2.

# Test System: human ETA receptor (Homo sapiens, UniProt P25101)
# Construct: endogenously expressed human ETA receptors in SK-N-MC cells; host or cells: SK-N-MC cells
# Sequence (P25101 21-427): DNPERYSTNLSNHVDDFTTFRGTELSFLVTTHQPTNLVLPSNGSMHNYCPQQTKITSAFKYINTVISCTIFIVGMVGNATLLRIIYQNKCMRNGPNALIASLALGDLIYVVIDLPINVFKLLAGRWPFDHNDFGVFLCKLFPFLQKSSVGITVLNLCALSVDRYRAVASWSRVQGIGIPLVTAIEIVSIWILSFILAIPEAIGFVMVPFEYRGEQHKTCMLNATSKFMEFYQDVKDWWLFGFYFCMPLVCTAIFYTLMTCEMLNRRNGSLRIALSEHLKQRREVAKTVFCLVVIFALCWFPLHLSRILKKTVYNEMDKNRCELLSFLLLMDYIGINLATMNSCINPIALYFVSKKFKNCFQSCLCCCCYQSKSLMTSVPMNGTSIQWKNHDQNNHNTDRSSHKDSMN
# Method Notes: In vitro antagonistic effect against human ETA receptor, Ca2+ signal in SK-N-MC cells
# Type: cell-based
# Setup Conditions: SK-N-MC cells, response to 1 nM endothelin-1
Property: IC50 (nM)

Examples from the recorded data:
[
  {
    "Record Smiles": "O=S(=O)(Nc1ncnc(OCCOc2ncc(Br)cn2)c1-c1ccc2c(c1)OCO2)NC1CCC1",
    "Property": "IC50",
    "Recorded Value": 1
  },
  {
    "Record Smiles": "CCCNS(=O)(=O)Nc1ncnc(OCCOc2ncc(Br)cn2)c1-c1ccc2c(c1)OCC2",
    "Property": "IC50",
    "Recorded Value": 0.65
  }
]

I: COCCNS(=O)(=O)Nc1ncnc(OCCOc2ncc(Br)cn2)c1-c1ccc2c(c1)OCO2
II: CCOCCCNS(=O)(=O)Nc1ncnc(OCCOc2ncc(Br)cn2)c1-c1ccc2c(c1)OCO2
# query: argmin of IC50 over I and II Give the label of your selection.
II
